Tested on: SK-MEL-28 melanoma
Method description: NCI-60 one-dose screen, 48 h (100 = growth as untreated, 0 = no growth, -100 = all killed)
Condition details: 10 µM unless noted
The panel holds about 83,000 compounds, 20% with a hit somewhere; the sample as a whole holds those more often. Active and inactive are the calls of the source. Rule for the calls: active = growth percent below 10; inactive = the rest.
Recorded measurements of growth, one per entry
Readout: growth

COC(=O)C1=C(C)C(=O)CC1 | 110% (inactive)
NC(=S)N/N=C/c1ccc(OC(=O)COc2ccc(Cl)cc2)cn1 | 76.5% (inactive)
CCCOCc1cn[nH]n1 | 109% (inactive)
NC(=S)N/N=C/c1ccc(OC(=O)COc2ccccc2)cn1 | 83% (inactive)
CC(C)(N)CO[C@H]1C[C@H]2CC[C@@]1(C)C2(C)C | 94.7% (inactive)
Nc1nc2nnc(-c3ccccc3)c(-c3ccccc3)n2n1 | 86.3% (inactive)
CC(C)N(CCCC#N)C(C)C | 95.3% (inactive)
CCC(=O)C1C(=O)c2ccccc2C1=O | 120% (inactive)
CC1(C)C2CCC1(C)C1(C2)OCCS1 (centres undefined) | 102% (inactive)
Clc1ncnc2nc[nH]c12 | 99.8% (inactive)
CNc1ccccc1C(=O)N/N=C/C=C/c1ccccc1 | 39.3% (inactive)
CCC(=O)Oc1c(C)cc(O)c2ccccc12 | 119% (inactive)
CCCCCCCCCCCCCCCCCCSC(=N)N | 93.5% (inactive)
NC(CO)(CO)c1ccccc1 | 106% (inactive)

---

Tested on: SNB-19 CNS
Method description: NCI-60 one-dose screen, 48 h (100 = growth as untreated, 0 = no growth, -100 = all killed)
Condition details: 10 µM unless noted
This is part of a sample that, as a whole, favours compounds with a hit. Of some 83,000 tested, about 20% had one in any assay.
Readout: growth (%)

C/C(O)=C(/C=N\C(=S)Nc1ccc(S(=O)(=O)Nc2nccs2)cc1)C(=O)Nc1ccccc1C | 92.7
Nc1ccn(C2OC(CO)C(O)C2F)c(=O)n1 (stereo not given) | 90.5
CCCC(OC(C)=O)c1ccc2c(c1)OCO2 (stereo not given) | 105
CN1C(=O)NC(c2ccc(Cl)cc2)(c2ccc(Cl)cc2)C1=O | 105
O=C(NC1CCCCC1)c1ccc(Cl)cc1 | 101
O=C(O)CC1=CCCCC1 | 97.2
CSc1cnc2ccccc2n1 | 99.5
Cc1cc(Nc2ccc3c(c2)OCO3)c2cc3c(cc2n1)OCO3 | 0.716
COC(=O)C1=C(C)C(=O)CC1 | 104
O=c1nc(Nc2cccc(Cl)c2)oc2cc(Cl)oc(=O)c12 | 94.3
Cc1ccc(NCN2C(=O)c3ccccc3C2=O)c(C)n1 | 113
CCCCCC/C=C\CCCCCCCCCc1cc(O)cc(OC)c1O | 24
C/C=C/C1OCC(CC)C(CCC)O1 (stereo not given) | 99.7
OCC1OC(n2ccc3c2ncn2ncnc32)C(O)C1O (stereo not given) | 50.3
CCOC(C=O)OCC | 106
O=C(CC(CC(=O)c1ccccc1)c1ccccn1)c1ccccc1 | 93.3
Cc1[nH]n(-c2ccccc2)c(=O)c1C=NC(=S)C(N)=S | 96.8
Cc1cccnc1NC1OC(=O)c2ccccc21 (stereo not given) | 101
CC1=CC(=Nc2ccc(N(C)C)cc2)C=C(C)C1=O | 106
CC(=O)Nc1ncc(S(=O)(=O)c2ccc([N+](=O)[O-])cc2)s1 | 114
O=c1cc(Cl)nc2ccccn12 | 103
Cc1c(Cl)cccc1NC(=S)NC(=O)c1ccccc1 | 107
CCOC(=O)c1cc(Cl)c(O)c(Cl)c1 | 106
O=C(c1ccccc1O)N1CCCC1 | 97.2
CCOC(=O)c1ccc(NC(C)=O)o1 | 97.1
Cc1c(-c2ccc(C3CCCCC3)cc2)nc2ccc(F)cc2c1C(=O)O | 61.7
CC(C)N1CC(=O)N2CSCC2C1=O (stereo not given) | 121
S=CN1CCCCC1 | 109
COc1ccc(/C=C\C(=O)/C=C/c2ccc(OC)cc2)cc1 | 89.3
O=C(OCc1ccccc1)n1nnc2ccccc21 | 112
Clc1cccc(Cl)c1CSc1nc2ccccc2n2cccc12 | 105
O=C(O)c1cc(I)ccc1O | 93.1
Oc1ccc(N=Cc2ccc(OCc3ccccc3)cc2)cc1 | 91.3
CN(CCCN(C)CCC1CCCCC1)CCC1CCCCC1 | 77.3
C=CCc1cc(OC)c(OC)c(OC)c1 | 103
O=c1cc(C(F)(F)F)[nH]c(=S)[nH]1 | 94.4
CCC(=O)Oc1c(C)cc(O)c2ccccc12 | 108
OCCc1ccc(Cl)cc1 | 96.5
CCCCc1ccc2nc(NC(=O)OC)[nH]c2c1 | 14.7
O=S(Cc1ccccc1)/C(=C/NC(=S)Nc1cc(Cl)ccc1Cl)c1ccccc1 (stereo not given) | 104
CCOc1ccc2c(c1)c(C)cc(C)[n+]2CC | 64.8
Cc1[nH]nc(C(N)=O)c1[N+](=O)[O-] | 93.2
Nc1ccc(F)cc1F | 109
CCCC(=O)c1cccs1 | 101
Nc1nc2nnc(-c3ccccc3)c(-c3ccccc3)n2n1 | 80
CCCCN(C(=O)CC)c1ccccc1 | 99.9
CCOC(=O)c1c(C)[nH]c(C)c1C=O | 97.1
CCCCCCCCNC(=O)C(C)C | 101
FC(F)(F)c1cc(NC2=NCCN=C(Nc3cc(C(F)(F)F)cc(C(F)(F)F)c3)SS2)cc(C(F)(F)F)c1 | 56.5
O=S(=O)(O)C(C(I)I)S(=O)(=O)O | 113
C=CC(=O)OC1CCC(C(C)(C)CC)CC1 (stereo not given) | 109
CCOC(=O)CNC(=O)Sc1ccc(C(C)(C)C)cc1 | 103
O=Cc1ccc(O)c(O)c1 | 86
CCOC(=O)C1(N)CCCCC1 | 96.5
C[n+]1cc2cc3c(cc2c2ccccc21)OCO3 | 16.1
